Parameter: inhibition at 25 µg/mL (stock). Scope: all listed entries.
Tgt: UDP-glucose dehydrogenase (Homo sapiens, UniProt O60701)
Sequence (O60701 1-494): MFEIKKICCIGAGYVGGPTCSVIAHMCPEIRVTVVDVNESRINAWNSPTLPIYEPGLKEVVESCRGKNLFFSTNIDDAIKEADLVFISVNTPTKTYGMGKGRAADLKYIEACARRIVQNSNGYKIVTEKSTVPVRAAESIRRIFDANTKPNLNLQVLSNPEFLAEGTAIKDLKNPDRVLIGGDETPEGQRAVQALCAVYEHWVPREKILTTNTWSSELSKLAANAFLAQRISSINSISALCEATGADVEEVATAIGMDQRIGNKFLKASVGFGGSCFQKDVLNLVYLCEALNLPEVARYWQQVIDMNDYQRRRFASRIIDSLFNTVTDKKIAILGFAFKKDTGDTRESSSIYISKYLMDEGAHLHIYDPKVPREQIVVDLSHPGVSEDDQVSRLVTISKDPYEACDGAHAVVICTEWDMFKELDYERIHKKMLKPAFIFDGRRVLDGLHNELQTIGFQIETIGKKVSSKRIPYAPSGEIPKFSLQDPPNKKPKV
Protocol description: High throughput screening for inhibitors of UDP-glucose dehydrogenase (NADH fluorescence)
Assay type: biochemical
Condition notes: compound plates 20 μL/well of 25 μg/mL compound in 2.5% DMSO; relative to DMSO negative and UDP-xylose positive controls; higher POC = more inhibitory; read-out: POC (Percent of Controls)
Just the number in %, nothing appended.

Illustrative cases are given below, each with its answer.
Item smiles	Observation type	Recorded measurement
COc1ccc(-c2ccc(CCC(=O)O)o2)cc1	inhibition at 25 µg/mL (stock)	57
Nc1ccc(S(=O)(=O)c2ccc(N)c(N)c2)cc1N	inhibition at 25 µg/mL (stock)	50
O=C(O[C@@H]1Cc2c(O)cc(O)cc2O[C@@H]1c1cc(O)c(O)c(O)c1-c1c([C@H]2Oc3cc(O)cc(O)c3C[C@H]2OC(=O)c2cc(O)c(O)c(O)c2)cc(O)c(O)c1O)c1cc(O)c(O)c(O)c1	inhibition at 25 µg/mL (stock)	73
CCc1cccc(NC(=O)NC2CCCCC2)c1	inhibition at 25 µg/mL (stock)	45
O=[N+]([O-])c1ccc(SCc2ccco2)c2cccnc12	inhibition at 25 µg/mL (stock)	57

Problem: Dear colleague, please send me the reported inhibition at 25 µg/mL (stock) for CC(C)N(CCC#N)S(=O)(=O)c1ccccc1[N+](=O)[O-] when you can.
Result: 81
